Below: a set of entries, each annotated with reported protein stability index.
B1: CLCN6 (parent)
chain: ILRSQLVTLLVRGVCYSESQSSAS

variants of: B1; test: protein stability index of a GFP-peptide fusion (GPS, HEK-293T) (PSI 1-6); higher = more stable; conditions: c terminus: a fixed tail appended;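 note: lentivirally expressed fusions sorted by FACS into six bins by GFP to DsRed ratio, PSI derived from sequencing read proportions per bin multiplied by bin number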

variant_key=S22H measured_value=3.54
variant_key=T8L measured_value=1.83
variant_key=Q5N measured_value=3.29

# ---- query variant ----
Query string: Supply reported protein stability index belonging to this variant: I1S
Result string: 3.03
